- Test system: Septoria nodorum
- methodDescription: Test F: wheat glume blotch on wheat seedlings, sprayed the day before inoculation, visual disease rating
- Format: in vivo
- testParameters: 200 ppm; 100 = 100% disease control, 0 = no control
assayMetric: Test F disease control rating (%)

>>> recordedvalue("Fc1cc(-n2c(Br)nc(Cl)c2-c2c(F)ccc(F)c2Cl)ccc1Cl")
51
>>> recordedvalue("Cc1nc(Cl)n(-c2ccc(Cl)c(F)c2)c1-c1ccccc1F")
0
>>> recordedvalue("Cc1ccc(-n2c(C)nc(Cl)c2-c2c(F)cc(F)cc2F)cc1")
84

====

- System: Septoria tritici
- methodDescription: Test G: wheat leaf blotch on wheat seedlings, sprayed the day before inoculation, visual disease rating
- Type: in vivo
- testParameters: 200 ppm; 100 = 100% disease control, 0 = no control relative to controls
Entries annotated with measured Test G disease control rating
assayMetric: Test G disease control rating (%)

>>> recordedvalue("N#Cc1ccc(F)c(-c2c(CCl)nc(Cl)n2-c2ccc(Cl)nc2)c1F")
99
>>> recordedvalue("COc1cc(F)c(-c2c(Cl)nc(Br)n2Cc2ccc(Cl)nc2)c(F)c1")
98
>>> recordedvalue("COc1ccc(F)c(-c2c(Cl)nc(Br)n2-c2ccc(Br)cc2)c1F")
100
>>> recordedvalue("COc1ccc(F)c(-c2c(C)nc(Cl)n2-c2ccc(Cl)cc2)c1F")
99
>>> recordedvalue("COc1cc(F)c(-c2c(Cl)nc(Cl)n2-c2cccc(Cl)c2)c(F)c1")
93
>>> recordedvalue("COc1cc(F)c(-c2c(Cl)nc(Cl)n2-c2cccnc2Br)c(F)c1")
100
>>> recordedvalue("Fc1ccc(-n2cnc(Br)c2-c2c(F)ccc(F)c2Cl)cc1")
94
>>> recordedvalue("Fc1ccc(-n2c(Br)nc(Br)c2-c2ccc(Cl)cc2)c(Cl)c1")
94
>>> recordedvalue("Cc1nc(Cl)c(-c2c(F)cccc2C(F)(F)F)n1-c1ccc(Cl)cc1")
95
>>> recordedvalue("Fc1cccc(F)c1-c1c(Cl)nc(Br)n1Cc1ccc(Cl)cc1")
98
>>> recordedvalue("Fc1cc(-n2c(Cl)nc(Cl)c2-c2cccnc2Cl)ccc1Cl")
92
>>> recordedvalue("CCOc1ccc(F)c(-c2c(Cl)nc(C)n2-c2cccc(F)c2)c1F")
98
>>> recordedvalue("Cc1nc(Cl)c(-c2c(F)cc(F)cc2F)n1-c1cccc(F)c1")
89
>>> recordedvalue("CCc1ccc(-n2c(Br)nc(Cl)c2-c2c(F)ccc(OC)c2F)cc1")
97
>>> recordedvalue("COc1cc(F)c(-c2c(Cl)nc(Cl)n2-c2cncc(Br)c2)c(F)c1")
99
